target_system: T1, recombinant extracellular domain (ECD) of human TF, amino acid 1-219 of the mature chain, C-terminal His6-tag (human, UniProt P13726 33-251)
T1 construct: expressed in a mammalian system; used for ELISA and Biacore; biotinylated by NHS-ester for the Fab ELISA; also called His6-TF-ECD1-219; HumanTF1-219
assay_remarks: TF-ECD binding ELISA, chemiluminescent
Below: a set of entries, each annotated with reported EC50.
Reply with just the number (in ng/mL).

binder="M11 (antibody, V domains shown, complete MAb; FR4 is its own entry; also called H15/L4) VH: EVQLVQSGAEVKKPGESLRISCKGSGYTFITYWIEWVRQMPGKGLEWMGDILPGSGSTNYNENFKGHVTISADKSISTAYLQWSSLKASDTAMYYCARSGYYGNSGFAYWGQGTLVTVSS VL: DIVMTQSPLSLPVTPGEPASISCKSSQSLLSSGNQKNYLTWYLQKPGQSPQLLIYWASTRESGVPDRFSGSGSGTDFTLKISRVEAEDVGVYYCQNDYTYPLTFGQGTKLEIK" attribute_measured=EC50 units_text=ng/mL readout_value=9.94
binder="M19 (antibody, V domains shown, complete MAb; FR4 is its own entry; also called H16/L5) VH: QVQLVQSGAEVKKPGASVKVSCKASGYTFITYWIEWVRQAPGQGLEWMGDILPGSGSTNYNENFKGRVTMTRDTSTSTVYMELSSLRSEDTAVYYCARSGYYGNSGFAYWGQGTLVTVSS VL: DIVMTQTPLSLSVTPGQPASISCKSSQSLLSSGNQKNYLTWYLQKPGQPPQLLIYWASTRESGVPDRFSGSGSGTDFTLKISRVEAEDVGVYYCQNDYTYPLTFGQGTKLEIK" attribute_measured=EC50 units_text=ng/mL readout_value=9.22
binder="M60 (antibody, V domains shown, complete MAb; FR4 is its own entry; also called H22/L4) VH: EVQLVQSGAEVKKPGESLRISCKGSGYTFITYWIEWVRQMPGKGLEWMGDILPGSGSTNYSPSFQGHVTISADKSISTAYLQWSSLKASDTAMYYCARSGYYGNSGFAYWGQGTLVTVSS VL: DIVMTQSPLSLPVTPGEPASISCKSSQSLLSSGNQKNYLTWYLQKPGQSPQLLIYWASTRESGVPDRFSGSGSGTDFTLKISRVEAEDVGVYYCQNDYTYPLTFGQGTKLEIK" attribute_measured=EC50 units_text=ng/mL readout_value=8.35

Kindly consider the entry below.
stdin: Identify measured EC50 corresponding to M9 (antibody, V domains shown, complete MAb; FR4 is its own entry; also called H15/L2) VH: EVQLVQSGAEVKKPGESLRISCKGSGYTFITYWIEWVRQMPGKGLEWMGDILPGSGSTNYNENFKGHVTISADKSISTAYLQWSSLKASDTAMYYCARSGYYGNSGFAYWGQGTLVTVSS VL: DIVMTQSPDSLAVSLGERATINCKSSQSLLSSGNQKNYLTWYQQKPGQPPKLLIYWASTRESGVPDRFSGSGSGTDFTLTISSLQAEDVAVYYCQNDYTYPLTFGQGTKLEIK
stdout: 9.8
